IC50 of gametocyte viability values by entry
Tested on: Plasmodium falciparum NF54 gametocytes
Conditions: gametocyte stage: Stage V Dose Response IC50 (µM); assay protocol: SaLSSA, 384; incubation time: 72 h
Structures can show the parent of a compound that is named as a salt.
Numbers only here, please. The scale is µM.

Sample answers from the record:
molecule="COc1cc(N[C@H](C)CCCN)c2nccc(C)c2c1Oc1ccc(Cl)c(Cl)c1 [NPC-1161B]" readout_kind="IC50 of gametocyte viability" result=2.86
molecule="CC[C@H](C)[C@H](NC(=O)[C@H]([C@@H](C)CC)N(C)C(C)=O)C(=O)N[C@H](C(=O)N[C@@H](CC(C)C)C(=O)[C@@]1(C)CO1)[C@@H](C)O [Epoxomycin]" readout_kind="IC50 of gametocyte viability" result=0.0128
molecule="CCCCN(CCCC)CCC(O)c1cc2c(Cl)cc(Cl)cc2c2cc(C(F)(F)F)ccc12 (stereo unspecified) [Halofantrine]" readout_kind="IC50 of gametocyte viability" result=0.0075

[ask] Sample CCN(CC)CCCNc1ccnc2cc(Cl)ccc12 [AQ-13] — what was its IC50 of gametocyte viability?
[reply] 6.05

[ask] Sample CN(C)c1ccc2nc3ccc(N(C)C)cc3[s+]c2c1 [Methylene Blue trihydrate] — what was its IC50 of gametocyte viability?
[reply] 0.258

[ask] Sample CCN(CC)Cc1cc(Nc2ccnc3cc(Cl)ccc23)ccc1O [Amodiaquine] — what was its IC50 of gametocyte viability?
[reply] 1.78

[ask] Sample CC(C)NC(=N)NC(=N)Nc1ccc(Cl)c(Cl)c1 [Chlorproguanil hydrochloride/1.11] — what was its IC50 of gametocyte viability?
[reply] 4.8

Hello, the source for this data is the supplement of paper PMC4723716, in case you need it.
